For each of the binders below, state its Avg % binding huGPC3 (RU observed/theoretical).
- system_tested: T1, recombinant human GPC3 (glypican-3) (human, UniProt P51654 25-559)
- T1 construct: also called huGPC3; hGPC3
- measurement_description: SPR (Biacore T200), antibody captured by anti-Fc, GPC3 injected

Reference set (4 entries):
| binder | recorded_value |
| --- | --- |
| v40218, H18L6_LC_N33H mAb (antibody, human IgG1, kappa, V domains shown, no number given for this variant) VH: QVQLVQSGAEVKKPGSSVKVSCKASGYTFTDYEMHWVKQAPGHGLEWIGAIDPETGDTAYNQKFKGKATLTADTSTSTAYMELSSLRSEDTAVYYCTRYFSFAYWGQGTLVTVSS VL: EIVLTQSPATLSLSPGERATISCRSSQSLRHSHGNTYLQWYQQKPGQAPRLLIYKVSNRFSGVPARFSGSGSGTDFTLTISSLEPEDFAVYFCYQSKHVPYTFGGGTKVEIKR | 15.6% |
| v40219, H18L6_LC_N33A mAb (antibody, human IgG1, kappa, V domains shown, no number given for this variant) VH: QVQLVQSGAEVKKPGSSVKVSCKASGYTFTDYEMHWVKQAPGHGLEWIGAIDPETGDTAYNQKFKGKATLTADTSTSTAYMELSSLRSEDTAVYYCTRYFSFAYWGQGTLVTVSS VL: EIVLTQSPATLSLSPGERATISCRSSQSLRHSAGNTYLQWYQQKPGQAPRLLIYKVSNRFSGVPARFSGSGSGTDFTLTISSLEPEDFAVYFCYQSKHVPYTFGGGTKVEIKR | 17.4% |
| v40203, H18L6_LC_G34D mAb (antibody, human IgG1, kappa, V domains shown) VH: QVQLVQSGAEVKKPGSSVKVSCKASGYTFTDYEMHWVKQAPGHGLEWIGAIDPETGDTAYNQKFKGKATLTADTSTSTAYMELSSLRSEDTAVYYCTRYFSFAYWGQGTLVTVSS VL: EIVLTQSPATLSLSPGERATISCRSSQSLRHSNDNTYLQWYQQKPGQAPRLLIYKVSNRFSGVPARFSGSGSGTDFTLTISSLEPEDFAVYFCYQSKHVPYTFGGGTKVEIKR | 44.1% |
| v40211, H18L6_LC_G34V mAb (antibody, human IgG1, kappa, V domains shown, no number given for this variant) VH: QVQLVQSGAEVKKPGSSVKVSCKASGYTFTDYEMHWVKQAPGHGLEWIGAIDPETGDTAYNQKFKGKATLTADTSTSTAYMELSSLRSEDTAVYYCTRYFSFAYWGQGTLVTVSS VL: EIVLTQSPATLSLSPGERATISCRSSQSLRHSNVNTYLQWYQQKPGQAPRLLIYKVSNRFSGVPARFSGSGSGTDFTLTISSLEPEDFAVYFCYQSKHVPYTFGGGTKVEIKR | 23.4% |

Here is another binder to look at.
Task item: What value of Avg % binding huGPC3 (RU observed/theoretical) has been reported for the following binder? v40221, H18L6_LC_N33S mAb (antibody, human IgG1, kappa, V domains shown, no number given for this variant) VH: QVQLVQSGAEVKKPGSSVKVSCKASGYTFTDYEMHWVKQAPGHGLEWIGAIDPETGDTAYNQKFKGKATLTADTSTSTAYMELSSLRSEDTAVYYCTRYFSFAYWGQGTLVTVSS VL: EIVLTQSPATLSLSPGERATISCRSSQSLRHSSGNTYLQWYQQKPGQAPRLLIYKVSNRFSGVPARFSGSGSGTDFTLTISSLEPEDFAVYFCYQSKHVPYTFGGGTKVEIKR
Reply: 18%
